meta.source: patent US8735322B2

# System: Avena fatua (AVEFA)
# Procedure Summary: Example A pre-emergence herbicidal activity, glasshouse pot test
# Type: in vivo
# Run Conditions: 480 h, rate 500 g/ha, evaluated 20 days later, 100=total damage to plant, 0=no damage to plant
Task for the reader: assign each of the following compounds its reported pest or weed control at 500 g/ha.
Could you give the number and then its unit, please?

- Compound: "CCc1cc(CC)c(C2=C(O)CC(CC3CCOCC3)CC2=O)c(CC)c1 (stereo not drawn) [Compound A-19]"
  Val: "60%"
- Compound: "CCc1cc(C)cc(CC)c1C1=C(O)CC(CC2OCCO2)CC1=O (stereo not drawn) [Compound A-6]"
  Val: "60%"

Enquiry: Fill in: pest or weed control at 500 g/ha of Cc1cc(C)c(C2=C(O)CC(CC3CCOCC3)CC2=O)c(C)c1 (stereo not drawn) [Compound A-9] is ___
Return: 60%
